# Test system: DU-145 prostate
# measurement-description: NCI-60 one-dose screen, 48 h
# condition-details: 10 µM unless noted
This is part of a sample that, as a whole, favours compounds with a hit. Of some 83,000 tested, about 20% had one in any assay. Active and inactive are the calls of the source. Rule for the calls: active = growth percent below 10; inactive = the rest.
Result category, one only: active, inactive

Illustrative cases are given below, each with its answer.
COc1cc([C@@H]2c3cc4c(cc3[C@H](O)[C@H]3COC[C@@H]23)OCO4)cc(OC)c1OC: inactive
O=C1Nc2c(c(=O)n(-c3ccccc3)c3ccccc23)C(c2ccc(Cl)cc2)N1 (configuration not stated): inactive
CCCCN(CCCC)CC(O)CN(CC)CC (configuration not stated): inactive
COc1cc(OC)c(/C=C/c2ccc3ccccc3[n+]2C)c(OC)c1: inactive
Cc1c(CN(C)C)cc(C(C)C)cc1C(C)C: inactive

Query: recorded result category for COC(=O)c1cc(=O)nc(N/N=C/c2ccccc2O)s1 in this test
inactive

Another compound to look at: NC(CSC(c1ccccc1)(c1ccccc1)c1ccccc1)C(=O)NCC(=O)O (configuration not stated)
inactive

Another compound to look at: CCCCCCCCCCCCCCCCCC(=O)Nc1ccc(O)cc1
inactive

Another compound to look at: O=C(/C=C1\C(=O)N(Cc2ccccc2)c2ccccc21)c1ccc(OCCN2CCCCC2)cc1
inactive

Another compound to look at: CC1=NN(c2cccc(Cl)c2)C(=O)/C1=C\c1cn(-c2nc(N3CCOCC3)nc(N3CCOCC3)n2)c2ccccc12
inactive

Another compound to look at: CC[N+](C)(C)N
inactive

Another compound to look at: Cc1ccc(C(=O)Nc2ccc(CN3CCN(C)CC3)c(C(F)(F)F)c2)cc1C#Cc1cncc2ncccc12
active

Another compound to look at: COc1ccc(/C=C/C(=O)/C=C/c2cc3ccccc3[nH]c2=O)cc1
inactive

Another compound to look at: N#CC1=C(N2CCOCC2)NC2c3ccccc3Sc3ccccc3N2C1=N (configuration not stated)
inactive

Another compound to look at: Cc1[nH]n(C(=S)Nc2nc3cc(Cl)c(F)cc3s2)c(=O)c1N=Nc1ccc(F)c(Cl)c1
inactive

Another compound to look at: COc1cc(/C(=C2/O[C@@H]([C@H]3COC(C)(C)O3)[C@H]3OC(C)(C)O[C@@H]23)c2ccc3c(c2)OCO3)cc(OC)c1OC
inactive

Another compound to look at: COc1ccc(C(=O)N2N=C(c3ccc(Br)cc3)CC2c2cn(-c3ccccc3)nc2-c2ccccc2)cc1 (configuration not stated)
inactive

Another compound to look at: O=Nc1ccc(O)c2ccccc12
inactive

Another compound to look at: CCS(=O)(=O)N[C@@H]1O[C@H](COC(C)=O)C(OC(C)=O)[C@H](OC(C)=O)C1OC(C)=O (some centres not stated)
inactive

Another compound to look at: C=CCN(C)C
inactive

Another compound to look at: Nc1ccc(N=Nc2ccccc2)c2cc(S(=O)(=O)O)ccc12
inactive

Another compound to look at: Cc1ccc(CC(=O)O)c(C)c1
inactive

These measurements were taken from PubChem BioAssay (NCI).
